# system_name: HLA-A*01:01
# measurement_description: IEDB peptide-MHC binding, purified MHC/competitive/radioactivity; filed as Kd, often an IC50 or EC50 that approximates it; bounds were set here for any values at or beyond the usual limits of such assays
# settings: source organism: Mammarenavirus machupoense
pKd: −log10 of the molar value.
experimental_endpoint: pKd

# input Which pKd value is on record for GYVVSNFEGV ?
# output ≤ 4.15

====

# system_name: HLA-B*53:01
# measurement_description: IEDB peptide-MHC binding, purified MHC/competitive/fluorescence; bounds were set here for any values at or beyond the usual limits of such assays
# settings: source organism: Homo sapiens
pIC50: −log10 of the molar value.
experimental_endpoint: pIC50

KVADVDLAVPV; ≤ 4.70

We next turn to a different sequence, shown below.
# input Which pIC50 value is on record for GSSDFQVHFLK ?
# output ≤ 4.70

Data origin, for the record: the Immune Epitope Database (IEDB)
